Test system: HEK-293T cells
Assay: Cell cytotoxicity assay HEK-293T (CellTiter-Glo, 72 hours)
Assay type: cell-based
Conditions: Table 3; 72 hours, top concentration of 50 μM; read-out: Cytotox K-293 EC50
Reported metric: pEC50
Just so you know, pEC50 here is -log10 of the concentration in molar units; reply with that number alone.

Let me know recorded pEC50 for CC(CO)S(=O)(=O)c1ccc(OC(F)F)c(-c2nn(C)cc2NC(=O)c2cnn3cccnc23)c1 (single isomer, unassigned) , thanks. 4.66

====

# pKi per entry
Molecular target: recombinant human JAK1 kinase domain protein (Residues 854-1154) (Homo sapiens, UniProt P23458)
Construct: human JAK1 kinase domain protein (Residues 854-1154)
Sequence (P23458 854-1154): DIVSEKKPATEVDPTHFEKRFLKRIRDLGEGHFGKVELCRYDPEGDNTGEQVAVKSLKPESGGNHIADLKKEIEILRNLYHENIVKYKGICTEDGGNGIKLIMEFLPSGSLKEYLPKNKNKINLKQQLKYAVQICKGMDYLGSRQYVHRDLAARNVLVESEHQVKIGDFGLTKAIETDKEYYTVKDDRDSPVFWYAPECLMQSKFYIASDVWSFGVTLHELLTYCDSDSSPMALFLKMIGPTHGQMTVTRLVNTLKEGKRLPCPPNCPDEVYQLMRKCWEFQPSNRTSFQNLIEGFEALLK
Experiment: JAK1 biochemical assay (microfluidic mobility shift, peptide phosphorylation)
Settings: 25 μM ATP, 1 nM total JAK1; read-out: Enzyme JAK1 Ki
Source text: JAK1 and JAK2 Biochemical Assays
Just so you know, pKi here is -log10 of the concentration in molar units; reply with that number alone.

Worked examples, 2 compounds total:
[
  {
    "Compound": "CN(C)CCn1cc(S(=O)(=O)c2ccc(OC(F)F)c(-c3nn(C)cc3NC(=O)c3cnn4cccnc34)c2)cn1",
    "pKi": 9.30
  },
  {
    "Compound": "C[C@H](Cn1cc(S(=O)(=O)c2ccc(OC(F)F)c(-c3nn(C)cc3NC(=O)c3cnn4cccnc34)c2)cn1)N(C)C",
    "pKi": 9.28
  }
]

# next compound below
Let me know recorded pKi for CC(O)C(C)S(=O)(=O)c1ccc(OC(F)F)c(-c2nn(C)cc2NC(=O)c2cnn3cccnc23)c1 (single isomer, unassigned) [Example 68] , thanks. 9.22

====

Assay: Cell cytotoxicity assay Jurkat (CellTiter-Glo, 72 hours)
Assay type: cell-based
Details: human, Jurkat clone E6-1 cells, Table 4; methyl-desmethyl analog pairs; read-out: Cytotox Jurkat EC50
Reported metric: EC50 at 72 h (µM)
Form entry: value (µM) — number only.

Worked examples, 2 compounds total:
[
  {
    "Compound": "CCS(=O)(=O)c1ccc(OC(F)F)c(-c2n[nH]cc2NC(=O)c2cnn3cccnc23)c1 [Example. 192 in WO201708 9390, reference compound]",
    "Units symbol": "µM",
    "Measured result": 0.79
  },
  {
    "Compound": "Cn1cc(NC(=O)c2cnn3cccnc23)c(-c2cc(S(=O)(=O)C(F)F)ccc2OC(F)F)n1 [Example 9]",
    "Units symbol": "µM",
    "Measured result": 3.5
  }
]

Let me know recorded EC50 at 72 h for CS(=O)(=O)c1ccc(OC(F)F)c(-c2n[nH]cc2NC(=O)c2cnn3cccnc23)c1 [Example 4 in WO201708 9390, reference compound] , thanks. 6.2

====

Experiment: Cell cytotoxicity assay HEK-293T (CellTiter-Glo, 72 hours)
Type: cell-based
Details: human, HEK-293T cells, Table 3; 72 hours, top concentration of 50 μM; read-out: Cytotox K-293 EC50
# log10(EC50 at 72 h) per entry
Recorded EC50 at 72 h (log10, µM)

[
  {
    "Compound": "CN(CCO)S(=O)(=O)c1ccc(OC(F)F)c(-c2nn(C)cc2NC(=O)c2cnn3cccnc23)c1 [Example 73]",
    "Measured result": 0.46
  },
  {
    "Compound": "CC(CO)S(=O)(=O)c1ccc(OC(F)F)c(-c2nn(C)cc2NC(=O)c2cnn3cccnc23)c1 (single isomer, unassigned) [Example 23]",
    "Measured result": 1.04
  },
  {
    "Compound": "Cn1cc(NC(=O)c2cnn3cccnc23)c(-c2cc(S(=O)(=O)C3CCC3)ccc2OC(F)F)n1 [Example 2]",
    "Measured result": 1.44
  },
  {
    "Compound": "Cn1cc(NC(=O)c2cnn3cccnc23)c(-c2cc(S(=O)(=O)N3CCC3)ccc2OC(F)F)n1 [Example 21]",
    "Measured result": 0.68
  },
  {
    "Compound": "Cn1cc(S(=O)(=O)c2ccc(OC(F)F)c(-c3nn(C)cc3NC(=O)c3cnn4cccnc34)c2)cn1 [Example 35]",
    "Measured result": 1.23
  },
  {
    "Compound": "Cn1cc(NC(=O)c2cnn3cccnc23)c(-c2cc(S(=O)(=O)CCCO)ccc2OC(F)F)n1 [Example 63]",
    "Measured result": 1.30
  },
  {
    "Compound": "C[C@H](Cn1cc(S(=O)(=O)c2ccc(OC(F)F)c(-c3nn(C)cc3NC(=O)c3cnn4cccnc34)c2)cn1)N(C)C [Example 59]",
    "Measured result": 1.15
  },
  {
    "Compound": "Cn1cc(NC(=O)c2cnn3cccnc23)c(-c2cc(S(C)(=O)=O)ccc2OC(F)F)n1 [Example 17]",
    "Measured result": 0.86
  },
  {
    "Compound": "CS(=O)(=O)c1ccc(OC(F)F)c(-c2nn(CC#N)cc2NC(=O)c2cnn3cccnc23)c1 [Example 28]",
    "Measured result": 1.38
  },
  {
    "Compound": "Cn1cc(NC(=O)c2cnn3cccnc23)c(-c2cc(S(=O)(=O)C3COC3)ccc2OC(F)F)n1 [Example 13]",
    "Measured result": 1.49
  }
]

Let me know recorded log10(EC50 at 72 h) for Cn1cc(NC(=O)c2cnn3cccnc23)c(-c2cc(S(=O)(=O)c3ccncc3)ccc2OC(F)F)n1 [Example 16] , thanks. 0.88

Let me know recorded log10(EC50 at 72 h) for Cn1cc(NC(=O)c2cnn3cccnc23)c(-c2cc(S(=O)(=O)C3CCCNC3)ccc2OC(F)F)n1 (single isomer, unassigned) [Example 37] , thanks. 1.49
